# Test system: E. coli TESEC Mtb Alr
# experiment_description: growth (OD600 after 10 h); higher = more growth (less inhibition)
# test_conditions: arabinose 10000000 nM; compound 0.1 mM; raw OD600 reference: median of DMSO wells 0.146, cell-free background 0.041
Where a name gives a salt, the structure may show the parent alone.
measure: growth
One number for each entry.

| compound | growth |
| --- | --- |
| CC(C)[N+](C)(CCC(C(N)=O)(c1ccccc1)c1ccccc1)C(C)C [Isopropamide iodide] | 0.142 |

Provide growth for all items below, preserving their order.
1. CC(C)(N)Cc1ccccc1 [Phentermine hydrochloride]
2. O=C1CC[C@@]2(O)[C@H]3Cc4ccc(O)c5c4[C@@]2(CCN3CC2CC2)[C@H]1O5 [Naltrexone hydrochloride dihydrate]
3. CC(O)(CS(=O)(=O)c1ccc(F)cc1)C(=O)Nc1ccc(C#N)c(C(F)(F)F)c1 (centres undefined) [Bicalutamide]

1. 0.138
2. 0.139
3. 0.15
